# key: entry, value: Population Membrane Permeable-Phenotype (%)
# Tested on: U2OS
# EXPERIMENT SUMMARY: Multiplex assay against U2OS
# Format: toxicity, cell-based
# SETTINGS: human, 12 h, 1 µM, compound concentration 1 uM, replicate 1
Lab book: enter the figure in %, no units written.

Previously resolved entries follow.
• Cn1cc(C(=O)OCC2CCN(CCNS(C)(=O)=O)CC2)c2ccccc21 = 7
• CSc1nc(NC2CCCC2)c([N+](=O)[O-])c(NC2CCCC2)n1 [GS-39783] = 4
• CC(C)(C)c1ccc(CSc2cnn(C(C)(C)C)c(=O)c2Cl)cc1 [PYRIDABEN] = 3
• CCCCC[C@H](O)/C=C/[C@H]1[C@H](O)CC(=O)[C@@H]1CCCCCCC(=O)O [ALPROSTADIL] = 4
• COc1cc2nc(N3CCN(C(=O)COc4c(OC)cccc4C(C)C)CC3)nc(N)c2cc1OC.Cl.Cl = 10

Prompt: Give Population Membrane Permeable-Phenotype (%) (U2OS) of the following compound: C=CCN1C[C@H](C(=O)N(CCCN(C)C)C(=O)NCC)C[C@@H]2c3cccc4[nH]cc(c34)C[C@H]21 [CABERGOLINE]
Completion: 3

Prompt: Same question for COc1cc(C(=O)N2CC[C@@H](O)[C@@H](N)C2)cc2nc(-c3cc4ccccc4n3CC3CC3)n(C)c12.Cl please.
Completion: 38

Prompt: What would you report for CC(C)(O)C(=O)N1CCN(c2ccc(C(F)(F)F)c(C3=C(c4c[nH]c5ccccc45)C(=O)NC3=O)c2)CC1 ?
Completion: 5

Prompt: Cool, now CCCCCCNC(=O)Nc1ccc(S(=O)(=O)Nc2ccc(CCNC[C@H](O)COc3ccc(O)cc3)cc2)cc1 [L-755507]
Completion: 4

Prompt: // query: CN1CCN2c3ccccc3Cc3ccccc3C2C1.Cl (stereo unspecified) [MIANSERIN HYDROCHLORIDE]
Completion: 7

Prompt: Here is the next compound: COc1cc(OC2CCN(C(C)=O)CC2)ccc1C(=O)N1CCC(N2C(=O)OCc3ccccc32)CC1
Completion: 5

Source of measurements: ChEMBL document CHEMBL5058577
